pIC50: −log10 of the molar value.
Target or system Epidermal growth factor receptor (Homo sapiens); metric pIC50; compiled from varied reports.
quantity.kind: pIC50

Use the examples below as a reference point.
{"compound": "Nc1ccc2ncnc(Nc3ccc(F)c(Cl)c3)c2c1", "measured": 7.54}
{"compound": "Cc1ncc([N+](=O)[O-])n1CCOC(=O)/C=C/c1ccccc1F", "measured": 4.57}

P = COC1CNCCN(Cc2ccn3ncnc(Nc4ccc5c(cnn5Cc5cccc(F)c5)c4)c23)C1 (stereo unspecified)
Q = C=CC(=O)Nc1cccc(N2C(=O)N(C)Cc3cnc(NC)nc32)c1
Query block: Among P and Q , which shows a numerically higher pIC50 result? API: response body contains the label of the selected item.
Result block: P

---

Target or system Epidermal growth factor receptor (Homo sapiens); metric IC50; compiled from varied reports.

{"structure.string": "CN1CC[C@H](c2c(O)cc(O)c3c(=O)cc(Oc4ccccc4Cl)oc23)[C@H](O)C1", "target.under.test": "Epidermal growth factor receptor (Homo sapiens)", "IC50": "> 50 µM"}
{"structure.string": "O=c1oc2cc3ncnc(Nc4ccc(F)c(Cl)c4)c3cc2n1CCCN1CCOCC1", "target.under.test": "Epidermal growth factor receptor (Homo sapiens)", "IC50": "0.078 µM"}
{"structure.string": "Cc1ccc([N+](=O)[O-])cc1Nc1nccc(-c2cccnc2)n1", "target.under.test": "Epidermal growth factor receptor (Homo sapiens)", "IC50": "> 100 µM"}

Query block: Given the entry Cc1[nH]c(/C=C2\C(=O)Nc3ccc(C(=O)O)cc32)c(C)c1CCC(=O)O , report its measured IC50.
Result block: > 100 µM

Query block: Another compound: C=C1[C@H](C)CCC[C@]1(C)CC/C(C)=C/CC1=C(O)C(=O)C=C(N[C@H](C(=O)O)[C@@H](C)O)C1=O
Result block: > 449 µM

---

Target or system UniProt P00533; metric IC50; compiled from varied reports.

{"structure.string": "C=CC(=O)Nc1ccccc1Nc1nc(Nc2ccc(OCCCOC3(CC)OCC(C)(C)CO3)cc2)ncc1F", "IC50": "> 0.1 µM"}
{"structure.string": "Cc1ccc(-c2nn(C(C)(C)CNC(=O)c3ccncc3)c3ncnc(N)c23)cc1", "IC50": "> 10 µM"}
{"structure.string": "Cc1c(C#N)c(Nc2ccc(S(N)(=O)=O)cc2)nc2ncnc(N)c12", "IC50": "> 100 µM"}
{"structure.string": "Cc1ccc(C(=O)Nc2ccc(CN3CCN(C)CC3)c(C(F)(F)F)c2)cc1NC(=O)c1cnc(NC2CC2)nc1", "IC50": "0.044 µM"}
{"structure.string": "Cn1c(SSc2c(C(=O)Nc3ccccc3)c3cccc(Cl)c3n2C)c(C(=O)Nc2ccccc2)c2cccc(Cl)c21", "IC50": "> 100 µM"}

Let's switch to this compound now.
Query block: Given the entry Cn1c(=O)c(-c2c(Cl)cccc2Cl)cc2cncnc21 , report its measured IC50.
Result block: > 50 µM

---

Target or system UniProtKB P00533; metric IC50; compiled from varied reports.
quantity.kind: IC50 (nM)

P = NC(=O)C1CCN(Cc2ccc(-c3cc4ncnc(Nc5ccc6[nH]ccc6c5)c4s3)cc2)CC1
Q = NCc1cccc(C#Cc2cncnc2Nc2ccc(OCc3cccc(F)c3)c(Cl)c2)n1
R = COc1cc(N(C)CCN(C)C)c(NC(=O)/C=C\C(C)C)cc1Nc1nccc(-c2cn(C)c3ccc(F)cc23)n1
Query block: # rank by IC50, ascending (min first) Returns: the labels listed in the requested order.
Result block: P, Q, R
(P: 7 nM, Q: 21 nM, R: 977 nM)
